Data credit: ChEMBL document CHEMBL3877277

Assay: in vitro
Settings: PAMPA
molecules and their reported Papp at 6 h, 100 µM
Note: unit ×10⁻⁶ cm/s is implicit; provide only the numeric part.

Consider the reported Papp at 6 h, 100 µM for these molecules:
> print(dat)
                            molecule.smiles      measured.metric  unit.annotation  numeric.result
1  O=C1c2ccccc2S(=O)(=O)N1CCN1CCN(Cc2ccc(F)cc2)CC1  Papp at 6 h, 100 µM       ×10⁻⁶ cm/s            3.65
2  O=C1c2ccccc2S(=O)(=O)N1CCCCN1CCN(Cc2ccccc2F)CC1  Papp at 6 h, 100 µM       ×10⁻⁶ cm/s              11
3  O=C1c2ccccc2S(=O)(=O)N1CCCCN1CCN(Cc2ccccc2)CC1  Papp at 6 h, 100 µM       ×10⁻⁶ cm/s            10.6
4  O=C1c2ccccc2S(=O)(=O)N1CCCCCN1CCN(Cc2ccccc2F)CC1  Papp at 6 h, 100 µM       ×10⁻⁶ cm/s             9.6

Turning now to a further molecule:
Req: Can you share its Papp at 6 h, 100 µM? I mean this molecule: O=C1c2ccccc2S(=O)(=O)N1CCN1CCN(Cc2ccccc2)CC1
Resp: 3.75
